MEASUREMENT_TARGET: human IBAT (Homo sapiens)
MEASUREMENT_NOTES: In vitro assay using Cos 7 cells, transiently expressed human IBAT
Assay type: cell-based
TEST_SETTINGS: [3H]-taurocholate 8 μM uptake, 37° C., 60 minutes

{"columns": ["COMPOUND", "MEASUREMENT_TARGET", "IC50 / µM"],
 "data": [
  ["CCCCC1(CCCC)CS(=O)(=O)c2ccc(N(C)C)cc2C(c2cccc(NC(=S)Nc3ccc(C[n+]4cccc(Cl)c4)cc3)c2)N1 (stereo not drawn)", "human IBAT (Homo sapiens)", 0.069],
  ["CCCCC1(CCCC)CS(=O)(=O)c2ccc(N(C)C)cc2C(c2cccc(NC(=S)Nc3ccc(C[n+]4ccc(C(C)(C)C)cc4)cc3F)c2)N1.[Br-] (stereo not drawn)", "human IBAT (Homo sapiens)", 0.025],
  ["CCCCC1(CCCC)CS(=O)(=O)c2ccc(N(C)C)cc2C(c2cccc(NC(=S)Nc3ccc(C[N+](C)(C)Cc4ccccc4)c(Br)c3)c2)N1 (stereo not drawn)", "human IBAT (Homo sapiens)", 0.068],
  ["CCCCC1(CCCC)CS(=O)(=O)c2ccc(N(C)C)cc2C(c2cccc(NC(=S)Nc3ccc(C[n+]4ccc(C)cc4)cc3)c2)N1.[Br-] (stereo not drawn)", "human IBAT (Homo sapiens)", 0.049],
  ["CCCCC1(CCCC)CS(=O)(=O)c2ccc(N(C)C)cc2C(c2cccc(NC(=S)Nc3ccc(C[N+]45CCC(c6ccccc6)(CC4)CC5)cc3C)c2)N1.[Br-] (stereo not drawn)", "human IBAT (Homo sapiens)", 0.028],
  ["CCCCC1(CCCC)CS(=O)(=O)c2ccc(N(C)C)cc2C(c2cccc(NC(=S)Nc3ccc(C[N+](C)(C)Cc4ccccc4)cc3)c2)N1.[Br-] (stereo not drawn)", "human IBAT (Homo sapiens)", 0.037],
  ["CCCCC1(CCCC)CS(=O)(=O)c2ccc(N(C)C)cc2C(c2cccc(NC(=S)Nc3ccc(C[n+]4ccc(CCc5ccncc5)cc4)cc3)c2)N1 (racemic)", "human IBAT (Homo sapiens)", 0.08],
  ["CCCCCCCCCC[N+](C)(C)Cc1ccc(NC(=S)Nc2cccc(C3NC(CCCC)(CCCC)CS(=O)(=O)c4ccc(N(C)C)cc43)c2)cc1 (stereo not drawn)", "human IBAT (Homo sapiens)", 0.088],
  ["CCCCC1(CCCC)CS(=O)(=O)c2ccc(N(C)C)cc2C(c2cccc(NC(=S)Nc3ccc(C[N+]4(Cc5ccccc5)CCC(O)CC4)cc3)c2)N1.[Br-] (stereo not drawn)", "human IBAT (Homo sapiens)", 0.039],
  ["C=CC[N+](C)(C)Cc1ccc(NC(=S)Nc2cccc(C3NC(CCCC)(CCCC)CS(=O)(=O)c4ccc(N(C)C)cc43)c2)cc1 (stereo not drawn)", "human IBAT (Homo sapiens)", 0.055],
  ["CCCCC1(CCCC)CS(=O)(=O)c2ccc(N(C)C)cc2C(c2cccc(NC(=S)Nc3ccc(C[n+]4cccc(CC)c4)cc3)c2)N1 (racemic)", "human IBAT (Homo sapiens)", 0.039],
  ["CCCCC1(CCCC)CS(=O)(=O)c2ccc(N(C)C)cc2C(c2cccc(NC(=S)Nc3ccc(C[N+]45CCC(CC4)CC5)cc3C)c2)N1 (stereo not drawn)", "human IBAT (Homo sapiens)", 0.049]
]}

----------
Test system: rats with partial ligation of the bile duct dosed bile acid
MEASUREMENT_NOTES: Model for hepatic disorder associated with cholestasis (partial bile duct ligation model), Protocol A: AST, ALT, ALP
Type: in vivo, rat
TEST_SETTINGS: Table 12-2; 1 mg/kg in 1% HCO 60; N=3, mean±standard error; control group 384 ± 156, sham 48 ± 5
A collection of compounds and their measured ALT

{"columns": ["COMPOUND", "UNITS_TEXT", "ALT"],
 "data": [
  ["CCCCC1(CCCC)CS(=O)(=O)c2ccc(N(C)C)cc2C(c2cccc(NC(=S)Nc3ccc(C[n+]4cccc(CCC(=O)OC)c4)cc3)c2)N1.[Br-] (centres unmarked) [EXAMPLE 3752]", "IU/L", 165],
  ["CCCCC1(CCCC)CS(=O)(=O)c2ccc(N(C)C)cc2C(c2cccc(NC(=S)Nc3ccc(C[n+]4cccc(CCCO)c4)cc3)c2)N1.[Br-] (centres unmarked) [EXAMPLE 3747]", "IU/L", 146],
  ["CCCCC1(CCCC)CS(=O)(=O)c2ccc(N(C)C)cc2C(c2cccc(NC(=S)Nc3ccc(C[N+]45CCC(c6ccccc6)(CC4)CC5)cc3)c2)N1.[Br-] (racemic) [EXAMPLE 3696]", "IU/L", 191],
  ["CCCCC1(CCCC)CS(=O)(=O)c2ccc(N(C)C)cc2C(c2cccc(NC(=S)Nc3ccc(C[n+]4ccccc4CCC)cc3)c2)N1.[Br-] (centres unmarked) [EXAMPLE 5408]", "IU/L", 197],
  ["CCCCC1(CCCC)CS(=O)(=O)c2ccc(N(C)C)cc2C(c2cccc(NC(=S)Nc3ccc(C[n+]4ccc(C(C)(C)C)cc4)cc3)c2)N1.[Br-] (centres unmarked) [EXAMPLE 3713]", "IU/L", 163]
]}

----------
A collection of compounds and their measured CELL TOXICITY AGAINST Caco2 3 μM
System: Caco-2 cell
MEASUREMENT_NOTES: Gastrointestinal toxicity: cytotoxicity against Caco-2 cell (LDH activity)
Assay type: cell-based, human
TEST_SETTINGS: 3 μM, 2 hours; LDH activity in medium relative to cell lysis agent = 100%

{"columns": ["COMPOUND", "MEASUREMENT_TARGET", "CELL TOXICITY AGAINST Caco2 3 μM"],
 "data": [
  ["CCCCC1(CCCC)CS(=O)(=O)c2ccc(N(C)C)cc2C(c2cccc(NC(=S)Nc3ccc(C[N+](C)(C)Cc4ccccc4)cc3)c2)N1.[Br-] (stereo not drawn) [EXAMPLE 3440]", "Caco-2 cell", "<1%"],
  ["CCCCC1(CCCC)CS(=O)(=O)c2ccc(N(C)C)cc2C(c2cccc(NC(=S)Nc3ccc(C[n+]4ccc(C)cc4)cc3)c2)N1.[Br-] (stereo not drawn) [EXAMPLE 3709]", "Caco-2 cell", "<1%"],
  ["CCCCCC1(CCCCC)CS(=O)(=O)c2ccc(N(C)C)cc2C(c2cccc(NC(=S)Nc3ccc(C[N+](C)(C)Cc4ccccc4)cc3)c2)N1.[Br-] (stereo not drawn) [EXAMPLE 5480]", "Caco-2 cell", "<1%"]
]}

----------
A collection of molecules and their measured IC50
MEASUREMENT_TARGET: human IBAT (Homo sapiens, UniProt Q12908)
Sequence (Q12908 whole entry): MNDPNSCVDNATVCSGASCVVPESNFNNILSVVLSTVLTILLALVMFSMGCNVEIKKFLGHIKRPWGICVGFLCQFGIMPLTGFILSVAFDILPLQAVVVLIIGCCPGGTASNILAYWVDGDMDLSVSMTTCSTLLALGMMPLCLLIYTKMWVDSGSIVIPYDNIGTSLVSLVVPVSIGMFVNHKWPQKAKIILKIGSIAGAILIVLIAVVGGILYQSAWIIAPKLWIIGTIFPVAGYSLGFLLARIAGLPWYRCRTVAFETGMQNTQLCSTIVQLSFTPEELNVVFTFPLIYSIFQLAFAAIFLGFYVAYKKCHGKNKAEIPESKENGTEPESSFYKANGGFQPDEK
MEASUREMENT_NOTES: In vitro assay using Cos 7 cells, transiently expressed human IBAT
Format: cell-based
TEST_SETTINGS: [3H]-taurocholate 8 μM uptake, 37° C., 60 minutes

{"columns": ["MOLECULE", "IC50"],
 "data": [
  ["CCCCC1(CCCC)CS(=O)(=O)c2ccc(N(C)C)cc2C(c2cccc(NC(=S)Nc3ccc(C[n+]4ccc(C(c5ccccc5)c5ccccc5)cc4)cc3)c2)N1 (stereo not drawn) [EXAMPLE 5410]", "100 nM"],
  ["CCCCC1(CCCC)CS(=O)(=O)c2ccc(N(C)C)cc2C(c2cccc(NC(=S)Nc3ccc(C[N+]45CCC(c6ccccc6)(CC4)CC5)cc3)c2)N1.[Br-] (racemic) [EXAMPLE 3696]", "39 nM"],
  ["CCCCC1(CCCC)CS(=O)(=O)c2ccc(N(C)C)cc2C(c2cccc(NC(=S)Nc3ccc(C[n+]4cccc(CCCO)c4)cc3)c2)N1.[Br-] (stereo not drawn) [EXAMPLE 3747]", "45 nM"],
  ["CCCCC1(CCCC)CS(=O)(=O)c2ccc(N(C)C)cc2C(c2cccc(NC(=S)Nc3ccc(C[N+]45CCC(CC4)CC5)cc3Cl)c2)N1 (stereo not drawn) [EXAMPLE P320]", "41 nM"],
  ["CCCCC1(CCCC)CS(=O)(=O)c2ccc(N(C)C)cc2C(c2cccc(NC(=S)NCCC[N+]3(Cc4ccccc4)CCC(CCO)CC3)c2)N1 (stereo not drawn) [EXAMPLE 593]", "92 nM"],
  ["CCCCC1(CCCC)CS(=O)(=O)c2ccc(N(C)C)cc2C(c2cccc(NC(=S)Nc3ccc(C[n+]4ccc(C(CC)CC)cc4)cc3)c2)N1 (stereo not drawn) [EXAMPLE 3714]", "58 nM"]
]}

----------
Tested on: rats with partial ligation of the bile duct dosed bile acid
MEASUREMENT_NOTES: Model for hepatic disorder associated with cholestasis (partial bile duct ligation model), Protocol A: AST, ALT, ALP
Format: in vivo, rat
TEST_SETTINGS: Table 12-2; 1 mg/kg in 1% HCO 60; N=3, mean±standard error; control group 643 ± 125, sham 128 ± 18
Threshold check on AST: at or above 300 IU/L gives condition met, strictly below gives condition not met.

{"columns": ["MOLECULE", "MEASUREMENT_TARGET", "CLASS_ASSIGNMENT"],
 "data": [
  ["CCCCC1(CCCC)CS(=O)(=O)c2ccc(N(C)C)cc2C(c2cccc(NC(=S)Nc3ccc(C[n+]4ccccc4CCC)cc3)c2)N1.[Br-] (centres unmarked)", "rats with partial ligation of the bile duct dosed bile acid", "condition not met"],
  ["CCCCC1(CCCC)CS(=O)(=O)c2ccc(N(C)C)cc2C(c2cccc(NC(=S)Nc3ccc(C[N+]45CCC(c6ccccc6)(CC4)CC5)cc3)c2)N1.[Br-] (racemic)", "rats with partial ligation of the bile duct dosed bile acid", "condition met"],
  ["CCCCC1(CCCC)CS(=O)(=O)c2ccc(N(C)C)cc2C(c2cccc(NC(=S)Nc3ccc(C[n+]4ccc(C(C)(C)C)cc4)cc3)c2)N1.[Br-] (centres unmarked)", "rats with partial ligation of the bile duct dosed bile acid", "condition not met"],
  ["CCCCC1(CCCC)CS(=O)(=O)c2ccc(N(C)C)cc2C(c2cccc(NC(=S)Nc3ccc(C[n+]4cccc(CCC(=O)OC)c4)cc3)c2)N1.[Br-] (centres unmarked)", "rats with partial ligation of the bile duct dosed bile acid", "condition met"],
  ["CCCCC1(CCCC)CS(=O)(=O)c2ccc(N(C)C)cc2C(c2cccc(NC(=S)Nc3ccc(C[n+]4cccc(CCCO)c4)cc3)c2)N1.[Br-] (centres unmarked)", "rats with partial ligation of the bile duct dosed bile acid", "condition not met"]
]}
